- Tested on: COL1A1 promoter
- method-description: COL1A1 promoter luciferase reporter inhibition assay in LX-2 cells
- Assay type: cell-based, human
- experimental-context: LX-2 cells, mean ± SD, n = 3; Control 124874.7 ± 10750.9
Where a SMILES comes first, the peptide text is derived from it.
Would you please tag the item t when its relative fluorescence unit (RFU) of COL1A1 promotor is 100000 RFU or above, and f when it is below?

Input: Please tell me: is the compound NC(=O)C[C@H](N)C(=O)N[C@@H](CC(=O)O)C(=O)O [Compound 8b, L-asparaginyl-L-aspartic acid] (H-Asn-Asp-OH) at or over 100000 RFU in terms of relative fluorescence unit (RFU) of COL1A1 promotor?
Output: f

Input: Please tell me: is the compound `N[C@@H](CC(=O)O)C(=O)NCCO` at or over 100000 RFU in terms of relative fluorescence unit (RFU) of COL1A1 promotor?
Output: t

Input: Please tell me: is the compound N[C@@H](CC(=O)OCc1ccc([N+](=O)[O-])cc1)C(=O)O [Compound 11c] at or over 100000 RFU in terms of relative fluorescence unit (RFU) of COL1A1 promotor?
Output: t

Input: Please tell me: is the compound Cc1cc(=O)n2c(CC(=O)N[C@H]3CCOC3=O)csc2n1 [Compound 34a] at or over 100000 RFU in terms of relative fluorescence unit (RFU) of COL1A1 promotor?
Output: t

Input: Please tell me: is the compound `Cc1cc(=O)n2c(CNC(=O)[C@H](N)CCO)csc2n1` at or over 100000 RFU in terms of relative fluorescence unit (RFU) of COL1A1 promotor?
Output: f

====

Where a SMILES comes first, the peptide text is derived from it.
Task for the reader: assign each of the following compounds its reported melting point.

Input: Return value of melting point for input COC(=O)[C@H]1C[C@H](Oc2cc(C)nn3c(-c4ccc(OC)c(OC)c4)cnc23)CN1 [Compound 43] , no commentary.
Output: 127.2 to 129.6 °C

Input: Return value of melting point for input NC(=O)C[C@H](N)C(=O)N[C@@H](CC(=O)O)C(=O)O [Compound 8b, L-asparaginyl-L-aspartic acid] (H-Asn-Asp-OH) , no commentary.
Output: 195.3 to 198.6 °C

Input: Return value of melting point for input N[C@@H](CC(=O)Nc1nc(CO)cs1)C(=O)O [Compound 4a] , no commentary.
Output: 257.8 to 259.4 °C

Input: Return value of melting point for input N[C@@H](CC(=O)O)C(=O)OCc1ccc(F)cc1 [Compound 11e] , no commentary.
Output: 197.6 to 199.5 °C

Input: Return value of melting point for input CC[C@@H]1C2C[C@H](O)CC[C@]2(C)C2CC[C@@]3(C)C(CCC3[C@H](C)CCC(=O)N[C@@H](CC(=O)O)C(=O)O)C2[C@@H]1O (some centres unmarked) [Compound 9] , no commentary.
Output: 108.2 to 110.6 °C

Input: Return value of melting point for input NC(Cc1cc(=O)c(O)co1)C(=O)O (centres unmarked) [Compound 20a] , no commentary.
Output: 217.1 to 219.8 °C

Input: Return value of melting point for input N[C@@H](CC(=O)O)C(=O)OCc1ccc([N+](=O)[O-])cc1 [Compound 11f] , no commentary.
Output: 190.6 to 192.1 °C

Input: Return value of melting point for input N[C@@H](CC(=O)OCc1cc(=O)c(O)co1)C(=O)O [Compound 23a] , no commentary.
Output: 156.3 to 158.7 °C

====

Task for the reader: assign each of the following molecules its reported inhibition at 500 µM.
- Test system: COL1A1 promoter
- method-description: COL1A1 promoter luciferase reporter inhibition assay in LX-2 cells;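 further: Anti-fibrotic screen: luciferase reporter driven by the COL1A1 promoter in human hepatic stellate LX-2 cells, compounds applied in complete medium in 96-well plates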
- Format: cell-based, human
- experimental-context: Homo sapiens; LX-2 cells, 0.5 mM, 24 h; read-out: Inhibitory Rate (%) of COL1A1 promotor
Where a SMILES comes first, the peptide text is derived from it.
State the answer as a number, implicitly in %.

Input: Return value of inhibition at 500 µM for input N[C@@H](CC(=O)O)C(=O)OCc1ccc(F)cc1 [Compound 11e] , no commentary.
Output: 27.9

Input: Return value of inhibition at 500 µM for input Cc1cc(=O)n2c(CC(=O)N[C@H]3CCOC3=O)csc2n1 [Compound 34a] , no commentary.
Output: 15.5

Input: Return value of inhibition at 500 µM for input Cc1cc(=O)n2c(CNC(=O)[C@H](N)CCO)csc2n1 [Compound 29] , no commentary.
Output: 33.2

Input: Return value of inhibition at 500 µM for input Cc1oc(COC(=O)C[C@H](N)C(=O)O)cc(=O)c1O [Compound 23b] , no commentary.
Output: 34.6

Input: Return value of inhibition at 500 µM for input Cc1cc(=O)n2c(CN[C@@H](CC(=O)O)C(=O)O)csc2n1 [Compound 33] , no commentary.
Output: 6.39

Input: Return value of inhibition at 500 µM for input COC(=O)[C@H]1C[C@H](Oc2cc(C)nn3c(-c4ccc(OC)c(OC)c4)cnc23)CN1 [Compound 43] , no commentary.
Output: 38.2

Input: Return value of inhibition at 500 µM for input Cn1cc(O)c(=O)cc1CC(N)C(=O)O (centres unmarked) [Compound 20b] , no commentary.
Output: 24

Input: Return value of inhibition at 500 µM for input Cc1cc(=O)n2c(COC(=O)C[C@H](N)C(=O)O)csc2n1 [Compound 31] , no commentary.
Output: 14.6

Input: Return value of inhibition at 500 µM for input N[C@@H](CC(=O)O)C(=O)OCc1ccc([N+](=O)[O-])cc1 [Compound 11f] , no commentary.
Output: 20.6

Input: Return value of inhibition at 500 µM for input Cc1ccc(COC(=O)[C@@H](N)CC(=O)O)cc1 [Compound 11d] , no commentary.
Output: 19.9

Input: Return value of inhibition at 500 µM for input CC(C)(C)OC(=O)C[C@H](NC(=O)OCC1c2ccccc2-c2ccccc21)C(=O)NCCO [Compound 3] , no commentary.
Output: 81.5

Input: Return value of inhibition at 500 µM for input O=C(O)C[C@H](NC(=O)OCC1c2ccccc2-c2ccccc21)C(=O)NCCO [Compound 5] , no commentary.
Output: 24

Input: Return value of inhibition at 500 µM for input NC(=O)C[C@H](N)C(=O)N[C@@H](CC(=O)O)C(=O)O [Compound 8b, L-asparaginyl-L-aspartic acid] (H-Asn-Asp-OH) , no commentary.
Output: 23.8

Input: Return value of inhibition at 500 µM for input CNC(=O)C[C@H](N)C(=O)O [Compound 4c, N^4-methyl-L-asparagine] , no commentary.
Output: 35.5

Input: Return value of inhibition at 500 µM for input NC(Cc1cc(=O)c(O)co1)C(=O)O (centres unmarked) [Compound 20a] , no commentary.
Output: 17.9

Input: Return value of inhibition at 500 µM for input CC[C@@H]1C2C[C@H](O)CC[C@]2(C)C2CC[C@@]3(C)C(CCC3[C@H](C)CCC(=O)N[C@@H](CC(=O)O)C(=O)O)C2[C@@H]1O (some centres unmarked) [Compound 9] , no commentary.
Output: 97.4

Input: Return value of inhibition at 500 µM for input CCNC(=O)C[C@H](N)C(=O)O [Compound 4d, N^4-ethyl-L-asparagine] , no commentary.
Output: 33.1

Input: Return value of inhibition at 500 µM for input N[C@@H](CC(=O)OCc1cc(=O)n2ccsc2n1)C(=O)O [Compound 37] , no commentary.
Output: 8.46

Input: Return value of inhibition at 500 µM for input Cc1ccc(COC(=O)C[C@H](N)C(=O)O)cc1 [Compound 11a] , no commentary.
Output: 11.4

Input: Return value of inhibition at 500 µM for input COc1ccc(-c2cnc3c(O[C@@H]4CN[C@@H](C(=O)O)C4)cc(C)nn23)cc1OC [Compound 45] , no commentary.
Output: 69.6

Input: Return value of inhibition at 500 µM for input N[C@@H](CC(=O)O)C(=O)O [L-Asp, L-aspartic acid, reference compound] , no commentary.
Output: 11.3

Input: Return value of inhibition at 500 µM for input N[C@@H](CC(=O)Nc1nccs1)C(=O)O [Compound 4b, N^4-(thiazol-2-yl)-L-asparagine] , no commentary.
Output: 31.2

Input: Return value of inhibition at 500 µM for input Cc1cc(=O)n2c(CNc3ccccn3)csc2n1 [Compound 32a] , no commentary.
Output: 47.7

Input: Return value of inhibition at 500 µM for input Cc1cc(=O)n2c(CNC(=O)c3cccc(F)c3F)csc2n1 [Compound 28a] , no commentary.
Output: 43.9

Input: Return value of inhibition at 500 µM for input N[C@@H](CC(=O)OCc1cc(=O)c(O)co1)C(=O)O [Compound 23a] , no commentary.
Output: 27.9

Input: Return value of inhibition at 500 µM for input N[C@@H](CC(=O)Nc1nc(CO)cs1)C(=O)O [Compound 4a] , no commentary.
Output: 14.9

Input: Return value of inhibition at 500 µM for input COC(=O)[C@H]1C[C@H](Oc2cc(Cl)nn3c(-c4ccc(OC)c(OC)c4)cnc23)CN1C(=O)OC(C)(C)C [Compound 41] , no commentary.
Output: 66.7

Hey, just so you know, these numbers are from paper PMC11477965.
